Source of measurements: ChEMBL document CHEMBL3751842

Each entry below carries its reported pIC50.
TEST_DETAILS: Cytotoxicity against human HCT116 cells assessed as growth inhibition after 72 hrs by sulforhodamine B assay
Assay type: functional, cell-based, HCT-116
RUN_PARAMETERS: Homo sapiens, HCT-116, 72 h; read-out: IC50
FYI, pIC50 means -log10 of a concentration in mol per litre.

The following compounds have reported results that may help.
COc1ccc2cc(C(C)c3nnc4n3N=C(c3ccc(OC(F)(F)F)cc3)CS4)ccc2c1 (stereo not given) ... 4.93
COc1ccc(C2=Nn3c(nnc3C(C)c3ccc(CC(C)C)cc3)SC2)cc1 (stereo not given) ... 5.38
COc1ccc2cc(C(C)c3nnc4n3N=C(c3ccc(Cl)cc3Cl)CS4)ccc2c1 (stereo not given) ... 4.85
CC(c1ccc(-c2ccccc2)c(F)c1)c1nnc2n1N=C(c1ccccc1)CS2 (stereo not given) ... 5.01

With those in mind, consider the next compound.
Given item CC(C)Cc1ccc(C(C)c2n[nH]c(=S)n2N)cc1 (stereo not given) , the value recorded as its pIC50 is 4.56

###

TEST_DETAILS: Cytotoxicity against human HCT116 cells assessed as growth inhibition after 72 hrs by sulforhodamine B assay
Type: functional, cell-based, HCT-116
RUN_PARAMETERS: Homo sapiens, HCT-116, 72 h; read-out: IC50
READOUT: IC50 (µM)
Provide the reading as a plain figure in µM.

The following molecules have reported results that may help.
COc1ccc2cc(C(C)c3nnc4n3N=C(c3ccc(C)cc3)CS4)ccc2c1 (stereo not given) ... 10.2
COc1ccc2cc(C(C)c3nnc4n3N=C(c3ccc(Br)cc3)CS4)ccc2c1 (stereo not given) ... 11.7
COc1ccc(C2=Nn3c(nnc3C(C)c3ccc(-c4ccccc4)c(F)c3)SC2)cc1 (stereo not given) ... 4.4

Given item CC(c1ccc(-c2ccccc2)c(F)c1)c1nnc2n1N=C(c1ccc(OC(F)(F)F)cc1)CS2 (stereo not given) , the value recorded as its IC50 is 5.4
